Measured pKd accompanies every entry in the list below.
biological target: T1, RSV-F.mmh (Respiratory Syncytial Virus); assay: SPR (Biacore), mAb captured via Fc, soluble RSV-F.mmh injected, 25 C
T1 construct: also called recombinant RSV-F; soluble monomeric RSV-F
FYI, pKd means -log10 of a concentration in mol per litre.

Sample answers from the record:
Binder: H1H3589P (antibody, V domains shown) VH: EVQLVESGGGLVQPGGSLRLSCEASGFTFSTYWMSWVRQAPGKGLEWVANIKQDGSVKYFVDSVKGRFTVSRDNAKNSLYLQMNSLRAEDTALYHCARERHRGSYYGYYDGMDVWGQGTTVTVSS VL: DIQMTQSPSSLSASVGDRVTITCRASQNIDIYLNWYQERPGKAPNLLIYAASSLQSGVPSRFSGSGSGTDFTLTISSLQPEDFATYYCQQSYNTPFTFGGGTKVEIK
pKd: 6.61
--
Binder: H1H3608P2 (antibody, V domains shown) VH: QVQLVESGGGVVQPGRSLRLSCAASGFTFSSYGMHWVRQAPGKGLEWVAVIYYEGSNDYYVDSVKGRFTISRDNSKNTLYLQMNSLRAEDTAVYYCARRDWNSFDYWGQGTLVTVSS VL: DIVMTQSPLSLSVTPGEPASISCRSSQNLLNRNGFNYLDWYLQKPGQSPQLLIYLGSNRASGVPDRFSGSGSGTDFTLKISRVEVEDVGVYYCMQAIQTPYTFGQGTKLEIK
pKd: 8.27

Note: attention shifts to another entry.
Prompt: Respond only with pKd recorded for H1H3592P (antibody, V domains shown) VH: EVQLVESGGDLVQPGRSLRLSCVASGFTFDDYAMHWVRQAPGKGLEWVSGVSWSGSTVGYADSVKGRFTVSRDNAQKSLYLQMNSLRAEDTALYYCVKDAYKWNYYYYGLDVWGQGTTVTVSS VL: EIVMTQSPATLSVSPGERATLSCRASQTILSNLAWYLQKPGQAPRLLIYGASTRATGLPARFSGSGSGTEFTLTISSLQSEDFAVYYCQQYNNWPLTFGGGTKVEIK
Response: 8.36
